The measured values listed here are drawn from paper PMC5516028.

Target: α1β3 GABAA receptors (Rattus norvegicus, UniProt P62813+P63079)
Construct: expressed in transfected cells; host or cells: Xenopus laevis oocytes, mRNA injected
Sequence (P62813 28-455): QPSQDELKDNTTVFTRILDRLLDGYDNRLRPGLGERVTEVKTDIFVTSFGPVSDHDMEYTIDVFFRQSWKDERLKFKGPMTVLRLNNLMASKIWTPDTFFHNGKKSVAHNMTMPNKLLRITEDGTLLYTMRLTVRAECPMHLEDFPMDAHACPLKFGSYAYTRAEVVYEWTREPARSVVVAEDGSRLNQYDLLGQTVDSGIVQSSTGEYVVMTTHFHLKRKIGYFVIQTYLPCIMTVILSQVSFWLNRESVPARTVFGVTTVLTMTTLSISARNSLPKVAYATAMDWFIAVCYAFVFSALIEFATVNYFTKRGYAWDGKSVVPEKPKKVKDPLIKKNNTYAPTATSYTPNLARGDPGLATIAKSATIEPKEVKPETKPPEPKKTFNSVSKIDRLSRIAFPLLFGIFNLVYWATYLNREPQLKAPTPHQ
Sequence (P63079 26-473): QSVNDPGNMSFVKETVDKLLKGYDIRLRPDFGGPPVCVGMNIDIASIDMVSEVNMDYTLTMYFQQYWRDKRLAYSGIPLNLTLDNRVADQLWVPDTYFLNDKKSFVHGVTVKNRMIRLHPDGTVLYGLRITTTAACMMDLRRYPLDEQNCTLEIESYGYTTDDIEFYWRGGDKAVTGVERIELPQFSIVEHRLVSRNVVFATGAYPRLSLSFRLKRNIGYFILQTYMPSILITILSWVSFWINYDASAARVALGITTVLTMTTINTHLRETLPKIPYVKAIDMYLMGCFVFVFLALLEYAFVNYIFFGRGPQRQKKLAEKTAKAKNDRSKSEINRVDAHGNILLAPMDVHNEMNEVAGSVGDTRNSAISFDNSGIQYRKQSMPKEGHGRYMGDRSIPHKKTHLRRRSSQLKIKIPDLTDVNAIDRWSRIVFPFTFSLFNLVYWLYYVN
Experiment: Two electrode voltage clamp in Xenopus laevis oocytes, α1β3
Assay type: cell-based
Settings: read-out: efficacy, % of control current (GABA EC3-5 = 100%), α1β3; 10 nM

Structure	Measurement Target	Unit Of Measure	activity at 0.01 µM
Cc1ccc(-n2nc3c4cc(Cl)ccc4[nH]cc-3c2=O)cc1	α1β3 GABAA receptors (Rattus norvegicus, UniProt P62813+P63079)	%	101
COc1ccc2[nH]cc3c(=O)n(-c4ccc(C)cc4)nc-3c2c1	α1β3 GABAA receptors (Rattus norvegicus, UniProt P62813+P63079)	%	111
COc1ccc(-n2nc3c4cc(Cl)ccc4[nH]cc-3c2=O)cc1	α1β3 GABAA receptors (Rattus norvegicus, UniProt P62813+P63079)	%	106
Nc1ccc(-n2nc3c4cc(Cl)ccc4[nH]cc-3c2=O)cc1	α1β3 GABAA receptors (Rattus norvegicus, UniProt P62813+P63079)	%	108
